Each recorded value in this set is attributed to patent US20150141381A1.

# System: S. aureus RN450
# ASSAY_SUMMARY: In Vitro Anti-Bacterial Activity Assay (MIC), gram positive
# Format: cell-based
# TEST_CONDITIONS: Staphylococcus aureus, RN450, 18 h, gram positive bacteria; read-out: Antibiotic Activity Gram + (MIC)
In this section, each of the molecules is paired with its reported MIC.

Q. Short answer please: MIC, S. aureus RN450, entry "C[C@H]1c2ccc(-c3cccc(C=O)c3)c(O)c2C(=O)C2=C(O)[C@]3(O)C(=O)C(C(N)=O)=C(O)[C@@H](N(C)C)[C@@H]3[C@@H](O)[C@@H]21"
A. < 4 µg/mL

Q. Short answer please: MIC, S. aureus RN450, entry "CN(C)c1cc(CN2CCC(C(F)(F)F)CC2)c(O)c2c1C[C@H]1C[C@H]3[C@H](N(C)C)C(O)=C(C(N)=O)C(=O)[C@@]3(O)C(O)=C1C2=O"
A. < 4 µg/mL

====

# Test system: E. coli mL308 225
# ASSAY_SUMMARY: In Vitro Anti-Bacterial Activity Assay (MIC), gram negative
# Assay type: cell-based
# TEST_CONDITIONS: Escherichia coli, ML308225, 18 h, gram negative bacteria; read-out: Antibiotic Activity Gram − (MIC)
VALUE_KIND: MIC

Some compounds with recorded MIC:
>>> reported("CC(=O)NCc1ccc(O)c2c1C[C@H]1C[C@H]3[C@H](N(C)C)C(O)=C(C(N)=O)C(=O)[C@@]3(O)C(O)=C1C2=O")
"> 4 µg/mL"
>>> reported("C[C@H]1c2cccc(O)c2C(=O)C2=C(O)[C@]3(O)C(=O)C(C(N)=O)=C(O)[C@@H](N(C)C)[C@@H]3[C@@H](O)[C@@H]21 [drawing 3660]")
"> 4 µg/mL"

Q. MIC for "COCC(=O)Nc1cccc(-c2ccc(O)c3c2C[C@H]2C[C@H]4[C@H](N(C)C)C(O)=C(C(N)=O)C(=O)[C@@]4(O)C(O)=C2C3=O)c1" ?
A. > 4 µg/mL

====

In this section, each of the compounds is paired with its reported MIC.
# System: E. coli mL308 225
# ASSAY_SUMMARY: In Vitro Anti-Bacterial Activity Assay (MIC), gram negative
# Format: cell-based
# TEST_CONDITIONS: Escherichia coli, ML308225, 18 h, gram negative bacteria; read-out: Antibiotic Activity Gram − (MIC)

>>> reported("CN(C)[C@@H]1C(O)=C(C(N)=O)C(=O)[C@@]2(O)C(O)=C3C(=O)c4c(O)ccc(N5CCOCC5)c4C[C@H]3C[C@@H]12 [drawing 3548]")
"< 4 µg/mL"
>>> reported("CNC(=O)C1CCN(Cc2cc(N(C)C)c3c(c2O)C(=O)C2=C(O)[C@]4(O)C(=O)C(C(N)=O)=C(O)[C@@H](N(C)C)[C@@H]4C[C@@H]2C3)CC1")
"< 4 µg/mL"

Q. MIC for "CN(C)c1cc(CN2CCC(F)CC2)c(O)c2c1C[C@H]1C[C@H]3[C@H](N(C)C)C(O)=C(C(N)=O)C(=O)[C@@]3(O)C(O)=C1C2=O" ?
A. < 4 µg/mL

====

In this section, each of the compounds is paired with its reported MIC.
# Test system: S. aureus RN450
# ASSAY_SUMMARY: In Vitro Anti-Bacterial Activity Assay (MIC), gram positive
# Format: cell-based
# TEST_CONDITIONS: Staphylococcus aureus, RN450, 18 h, gram positive bacteria; read-out: Antibiotic Activity Gram + (MIC)

Some compounds with recorded MIC:
>>> reported("CN(C)[C@@H]1C(O)=C(C(N)=O)C(=O)[C@@]2(O)C(O)=C3C(=O)c4c(ccc(N5CCCCC5)c4O)C[C@H]3C[C@@H]12")
"> 4 µg/mL"
>>> reported("CN(C)CCN(Cc1ccccc1)Cc1ccc(-c2cc(N(C)C)c3c(c2O)C(=O)C2=C(O)[C@]4(O)C(=O)C(C(N)=O)=C(O)[C@@H](N(C)C)[C@@H]4C[C@@H]2C3)o1")
"> 4 µg/mL"

Next up:
Q. MIC for C[C@H]1c2ccc(CNCC(C)(C)C)c(O)c2C(=O)C2=C(O)[C@]3(O)C(=O)C(C(N)=O)=C(O)[C@@H](N(C)C)[C@@H]3[C@@H](O)[C@@H]21 [drawing 3661] ?
A. > 4 µg/mL
